Biological target: Jak2 tyrosine kinase (Homo sapiens (Human), UniProt O60674)
Sequence (O60674 whole entry): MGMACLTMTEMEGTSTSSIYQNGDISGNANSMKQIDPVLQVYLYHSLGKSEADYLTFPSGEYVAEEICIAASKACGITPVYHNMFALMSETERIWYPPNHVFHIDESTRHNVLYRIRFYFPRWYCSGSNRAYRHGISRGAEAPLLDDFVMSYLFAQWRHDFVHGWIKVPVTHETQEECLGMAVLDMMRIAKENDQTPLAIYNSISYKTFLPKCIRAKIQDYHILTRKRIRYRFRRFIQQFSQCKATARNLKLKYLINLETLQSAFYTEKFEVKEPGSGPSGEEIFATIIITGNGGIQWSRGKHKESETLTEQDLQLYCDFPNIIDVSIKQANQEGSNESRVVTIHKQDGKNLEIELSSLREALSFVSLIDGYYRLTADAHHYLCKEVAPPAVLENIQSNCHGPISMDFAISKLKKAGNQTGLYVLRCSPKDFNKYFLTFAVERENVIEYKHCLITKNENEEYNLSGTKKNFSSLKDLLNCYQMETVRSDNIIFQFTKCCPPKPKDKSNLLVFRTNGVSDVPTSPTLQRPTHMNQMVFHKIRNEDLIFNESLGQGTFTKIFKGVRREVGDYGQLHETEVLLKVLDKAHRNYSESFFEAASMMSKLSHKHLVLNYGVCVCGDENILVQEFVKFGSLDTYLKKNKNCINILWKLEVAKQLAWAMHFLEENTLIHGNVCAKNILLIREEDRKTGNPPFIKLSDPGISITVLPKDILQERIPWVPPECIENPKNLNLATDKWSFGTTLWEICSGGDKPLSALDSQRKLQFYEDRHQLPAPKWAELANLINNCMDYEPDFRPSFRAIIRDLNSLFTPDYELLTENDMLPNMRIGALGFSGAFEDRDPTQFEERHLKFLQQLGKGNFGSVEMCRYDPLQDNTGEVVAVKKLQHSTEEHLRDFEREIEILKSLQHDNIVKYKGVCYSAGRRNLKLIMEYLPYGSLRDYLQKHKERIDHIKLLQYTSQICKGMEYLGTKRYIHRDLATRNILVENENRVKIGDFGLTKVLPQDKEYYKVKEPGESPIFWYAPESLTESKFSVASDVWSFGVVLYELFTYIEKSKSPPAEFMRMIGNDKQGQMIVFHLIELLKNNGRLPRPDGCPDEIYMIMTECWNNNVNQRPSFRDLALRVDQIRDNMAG
Experiment: Jak2 Tyrosine Kinase Assay
Type: biochemical
Details: selectivity for Btk over Jak2; larger value = more selective for Btk
test readout: Ratio of Jak2/Btk IC50 values

molecule	observed result
Cc1c(-c2ccc(C(N)=O)c3[nH]c4cc(C(C)(C)O)ccc4c23)cccc1-n1c(=O)c2cc(F)ccc2n(C)c1=O	380
Cc1c(-c2ccc(C(N)=O)c3[nH]c4cc(C(C)(C)O)cc(C)c4c23)cccc1-n1c(=O)c2cccc(F)c2n(C)c1=O (single isomer, unassigned)	6600
Cc1c(-c2ccc(C(N)=O)c3[nH]c4cc(CO)ccc4c23)cccc1-n1c(=O)cc2c(F)cccn2c1=O	530

a = Cc1c(-c2ccc(C(N)=O)c3[nH]c4cc(C(C)(C)O)ccc4c23)cccc1-n1c(=O)cc2c(F)cccn2c1=O [Example 21]
b = COCc1ccc2c(c1)[nH]c1c(C(N)=O)ccc(-c3cccc(-n4c(=O)cc5c(F)cccn5c4=O)c3C)c12
Among a and b , whose measured Ratio of Jak2/Btk IC50 values is the smaller figure? Pick one and reply with its label.
b

P = Cc1c(-c2ccc(C(N)=O)c3[nH]c4cc(C(C)(C)O)ccc4c23)cccc1-n1c(=O)cc2c(F)cccn2c1=O [Example 23]
Q = Cc1c(-c2ccc(C(N)=O)c3[nH]c4cc(C(C)(C)O)ccc4c23)cccc1-n1c(=O)cc2c(F)cccn2c1=O [Example 22]
R = Cc1c(-c2ccc(C(N)=O)c3[nH]c4cc(C(C)(C)O)ccc4c23)cccc1-n1c(=O)cc2sccn2c1=O
S = COc1ccn2c(=O)n(-c3cccc(-c4ccc(C(N)=O)c5[nH]c6cc(C(C)(C)O)ccc6c45)c3C)c(=O)cc2c1
Rank the 4 molecules: largest Ratio of Jak2/Btk IC50 values first, smallest last. Ranked list of labels, please, in the requested order.
S, P, Q, R

I = COc1ccc2cc(=O)n(-c3cccc(-c4ccc(C(N)=O)c5[nH]c6cc(C(C)(C)O)ccc6c45)c3C)c(=O)n2c1
II = CC(=O)NCc1ccc2c(c1)[nH]c1c(C(N)=O)ccc(-c3cccc(-n4c(=O)cc5c(F)cccn5c4=O)c3C)c12
Among I and II , which shows a numerically higher Ratio of Jak2/Btk IC50 values result? Respond using the label that marks the chosen record.
I
(I: 790, II: 360)

I = COc1cccc2c(=O)n(-c3cccc(-c4ccc(C(N)=O)c5[nH]c6cc(C(C)(C)O)ccc6c45)c3C)c(=O)n(C)c12
II = Cc1c(-c2ccc(C(N)=O)c3[nH]c4cc(C(C)(C)O)ccc4c23)cccc1-n1c(=O)cc2c(Cl)cccn2c1=O (atropisomer, axis not shown) [Example 15]
III = Cc1c(-c2ccc(C(N)=O)c3[nH]c4cc(C(C)(C)O)ccc4c23)cccc1-n1c(=O)[nH]c2c(F)cccc2c1=O (single isomer, unassigned) [Example 2]
IV = Cc1nc(C(N)=O)c2[nH]c3cc(C(C)(C)O)ccc3c2c1-c1cccc(-n2cnc3ccccc3c2=O)c1C [compound 35, reference compound]
Order field: Ratio of Jak2/Btk IC50 values | Direction: descending (largest first) Returns: the labels arranged in the requested order.
II, I, III, IV

---

Target: human recombinant Btk (Homo sapiens (Human))
Sequence (Q06187 whole entry): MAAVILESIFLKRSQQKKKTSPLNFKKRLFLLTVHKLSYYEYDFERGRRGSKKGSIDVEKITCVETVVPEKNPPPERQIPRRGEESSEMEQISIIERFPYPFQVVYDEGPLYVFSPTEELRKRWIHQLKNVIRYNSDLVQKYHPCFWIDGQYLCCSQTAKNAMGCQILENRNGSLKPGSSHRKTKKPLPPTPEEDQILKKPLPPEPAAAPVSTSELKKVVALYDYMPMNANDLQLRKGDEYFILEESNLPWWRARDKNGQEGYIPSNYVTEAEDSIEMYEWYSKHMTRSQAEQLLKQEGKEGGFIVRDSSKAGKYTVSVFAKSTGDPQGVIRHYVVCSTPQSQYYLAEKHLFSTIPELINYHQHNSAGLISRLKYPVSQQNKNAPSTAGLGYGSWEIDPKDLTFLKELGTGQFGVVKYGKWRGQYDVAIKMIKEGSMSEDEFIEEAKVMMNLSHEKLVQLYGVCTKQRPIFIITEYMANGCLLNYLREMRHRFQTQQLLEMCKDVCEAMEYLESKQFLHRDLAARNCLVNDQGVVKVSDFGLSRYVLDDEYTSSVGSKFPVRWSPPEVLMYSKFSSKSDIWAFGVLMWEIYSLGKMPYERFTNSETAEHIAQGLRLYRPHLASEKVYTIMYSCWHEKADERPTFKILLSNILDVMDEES
Assay: Human Recombinant Btk Enzyme Assay
Details: human recombinant Btk 1 nM, ATP 20 μM
test readout: IC50 (nM)

compound	units text	IC50
CC(=O)NCc1ccc2c(c1)[nH]c1c(C(N)=O)ccc(-c3cccc(-n4c(=O)cc5c(F)cccn5c4=O)c3C)c12 [Example 30]	nM	1.2

1 = Cc1c(-c2ccc(C(N)=O)c3[nH]c4c(C)c(C(C)(C)O)ccc4c23)cccc1-n1c(=O)c2cccc(F)c2n(C)c1=O (atropisomer, axis not shown) [Example 26]
2 = Cc1c(-c2ccc(C(N)=O)c3[nH]c4cc(C(C)(C)O)ccc4c23)cccc1-n1c(=O)c(F)c2ccccn2c1=O [Example 19]
Smaller IC50 value? Options are 1 and 2 Record your answer as the label of the chosen record.
1
